// provenance: PubChem BioAssay AID709

Assay: intrinsic fluorescence of library compounds, ex339/em460 – biochemical, MLSMR library, data from DPM-DC assay, artefact control, profiling panel (AID 709);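 further: signal is the first read of a kinetic run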
Settings: compound autofluorescence, ex339/em460 nm, NADH buffer; at 10 µM; 1 = no-compound wells, NADH background
In all, about 65,000 compounds went through this assay and about 3,600 (5.5%) were called active.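 How the source made its calls: active means at 10 µM, mean starting fluorescence two-fold or more over control wells; inactive means the rest.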 This excerpt belongs to a sample that is enriched for actives.
# output must be one of active, inactive

Some solved cases for reference:
O=C(NCCN1CCOCC1)[C@H](Cc1ccccc1)N1C(=O)c2ccccc2C1=O : active
Cc1cc(C(F)(F)F)nn1-c1nc(-c2ccco2)cc(C(F)(F)F)n1 : active
O=C(CSc1nc(-c2ccco2)cc(C(F)(F)F)n1)NCc1cccs1 : inactive
CCOC(=O)c1ccn(-c2nc(-c3ccco3)cc(C(F)(F)F)n2)n1 : active

Query: I would be grateful if you could indicate the recorded call for N/C(=N\c1nc2ccccc2o1)NC(=O)C(Cc1ccccc1)N1C(=O)c2ccccc2C1=O (stereo not given) .
Response: inactive

----------
Assay: intrinsic fluorescence of library compounds, ex339/em460 – biochemical, MLSMR library, data from DPM-DC assay, artefact control, profiling panel (AID 709);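 further: signal is the first read of a kinetic run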
Settings: compound autofluorescence, ex339/em460 nm, NADH buffer; at 10 µM; active compounds read high; 1 = no-compound wells, NADH background
The whole screen tested about 65,000 compounds, of which about 3,600 (5.5%) were called active. Only a selection was taken, and actives are over-represented in it overall.
result-type: fluorescence fold increase
Form: value (number only, do not type unit).

Study these solved cases before continuing.
O=C(CN1CCN(C(=O)c2cccc(F)c2)CC1)Nc1ccccc1F : 1.17
Cc1c(C(=O)OCC(=O)N(CCC#N)c2ccccc2)oc2c1ccc1ccccc12 : 2.16
Cc1c(C(=O)OCc2cc(=O)n3cc(Br)ccc3n2)oc2ccccc12 : 1.07
CC(=O)N=c1ncn(CC(COC(C)=O)OC(C)=O)c2nc[nH]c12 (stereo not given) : 1.07

Okay, now this molecule:
Query: Any idea what fluorescence fold increase was measured for O=C(Cn1nnc2ccccc2c1=O)Nc1cc(C(F)(F)F)ccc1N1CCOCC1 ?
Response: 1.02

----------
Assay: intrinsic fluorescence of library compounds, ex339/em460 – biochemical, MLSMR library, data from DPM-DC assay, artefact control, profiling panel (AID 709);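 further: signal is the first read of a kinetic run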
Settings: compound autofluorescence, ex339/em460 nm, NADH buffer; at 10 µM; 1 = no-compound wells, NADH background
Hit rate of the full screen: of about 65,000 compounds, about 3,600 (5.5%) were called active.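 The calls were made as follows: active = at 10 µM, mean starting fluorescence two-fold or more over control wells; inactive = the rest.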 What follows is part of a selection rich in actives, with near analogues and random picks from the rest.
Outcome (select one): 1 = active, -1 = inactive

CC1(C)C(=O)Nc2ccccc2N1C(=O)COC(=O)Cn1cnc2ccccc2c1=O : -1
Cc1cc(C)c2c(n1)nn1c(N3CCN(c4cccc(Cl)c4)CC3)cc(C)nc21 : 1
COC(=O)c1c(-c2ccc(C)cc2)csc1N : -1
Cc1cc(C)c2c(n1)nn1c(-n3ccnc3)cc(C)nc21 : 1
Cc1nn2c3cc(N4CCOCC4)ccc3nc2c2ccccc12 : -1
COc1cc(NS(=O)(=O)c2ccc(NC(C)=O)cc2)cc(OC)c1 : -1
O=S(=O)(c1cccc(S(=O)(=O)N2CCC(n3nnc4ccccc43)CC2)c1)N1CCCCC1 : -1
COc1ccc(-n2c(SC)nc(O)cc2=O)cc1 : -1

Query: Identify the outcome logged in this assay for the compound shown: CCNC(=O)CN(c1ccc(C)cc1)S(=O)(=O)c1ccc(SC)cc1
Response: -1

Query: # iterate: O=C(c1ccco1)N1CCN(c2cccc(Cl)c2)CC1
Response: -1

Query: Also check CC1(C)CC(=O)C=C(NCCCN2CCCC2=O)C1
Response: -1

Query: How about this compound: Cc1cc(C)nc(N(C#N)CC(=O)Nc2ccccc2)n1
Response: -1
